test system: Rattus norvegicus; test: Antihypertensive activity in spontaneously hypertensive rats was measured as average blood pressure at 100 mg/kg, p.o. after 24 hours of postdose-1.; assay type: functional; details: route oral
endpoint-name: BP (mmHg)
# output: bare number, implied unit mmHg

Use the examples below as a reference point.
compound=CCOC(=O)CCCn1nc(-c2ccc(Cl)cc2)c(-c2ccc(Cl)cc2)c(C(C)=O)c1=O val=174
compound="CC(=O)c1c(-c2ccc(Cl)cc2)c(-c2ccc(Cl)cc2)nn(C(C)CO)c1=O (stereo not given)" val=174
compound=CC(=O)c1c(-c2ccc(Cl)cc2)c(-c2ccc(Cl)cc2)nn(CCN(C)C)c1=O.Cl val=170
compound=CC(=O)NCCn1nc(-c2ccc(Cl)cc2)c(-c2ccc(Cl)cc2)c(C(C)=O)c1=O val=146

Report BP on Rattus norvegicus for this entry: O=c1c(-c2ccccc2)c(-c2ccccc2)c(-c2ccccc2)nn1CCO
187

* * *

Each item that follows carries a reported BP.
test system: Rattus norvegicus; experiment: Antihypertensive activity in spontaneously hypertensive rats was measured as average blood pressure at 100 mg/kg, po after 24 hours of postdose-2; assay type: functional
# output: bare number, implied unit mmHg

Use the examples below as a reference point.
compound=CC(=O)c1c(-c2ccc(Cl)cc2)c(-c2ccc(Cl)cc2)nn(CCN2CCCC2)c1=O unit_text=mmHg val=146
compound="CC(=O)c1c(-c2ccc(Cl)cc2)c(-c2ccc(Cl)cc2)nn(C(C)CO)c1=O (centres undefined)" unit_text=mmHg val=201
compound=N#Cc1c(O)nnc(-c2ccc(Cl)cc2)c1-c1ccc(Cl)cc1 unit_text=mmHg val=175
compound=CC(=O)NCCn1nc(-c2ccc(Cl)cc2)c(-c2ccc(Cl)cc2)c(C(C)=O)c1=O unit_text=mmHg val=145
compound=CC(=O)c1c(-c2ccc(Cl)cc2)c(-c2ccc(Cl)cc2)nn(CCN=C(C)C)c1=O unit_text=mmHg val=164
compound=CN(C)c1ccc(-c2c(-c3ccc(Cl)cc3)c(-c3ccc(Cl)cc3)nn(CCO)c2=O)cc1.Cl unit_text=mmHg val=208
compound=O=c1c(-c2ccccc2)c(-c2ccccc2)c(-c2ccccc2)nn1CCO unit_text=mmHg val=188
compound=N#Cc1c(-c2ccc(Cl)cc2)c(-c2ccc(Cl)cc2)nn(CCCC(=O)O)c1=O unit_text=mmHg val=180

Okay, next one:
Respond only with BP recorded for CC(=O)c1c(-c2ccc(Cl)cc2)c(-c2ccc(Cl)cc2)nn(CCN2CCCCC2)c1=O
176

* * *

system: Rattus norvegicus; assay: Antihypertensive activity in spontaneously hypertensive rats was measured as average blood pressure at 30 mg/kg, p.o. after 24 hours of postdose-2; assay type: functional; settings: route oral
Each item that follows carries a reported BP.
# output: bare number, implied unit mmHg

Use the examples below as a reference point.
smiles_text=CC(=O)c1c(-c2ccc(Cl)cc2)c(-c2ccc(Cl)cc2)nn(CCN2CCCC2)c1=O val=199
smiles_text=CC(=O)c1c(-c2ccc(Cl)cc2)c(-c2ccc(Cl)cc2)nn(CCN=C(C)C)c1=O val=198
smiles_text=CC(=O)c1c(-c2ccc(Cl)cc2)c(-c2ccc(Cl)cc2)nn(CCO)c1=O val=206

Report BP on Rattus norvegicus for this entry: CC(=O)c1c(-c2ccc(Cl)cc2)c(-c2ccc(Cl)cc2)nn(CCN(C)C)c1=O
193

* * *

tested on: Rattus norvegicus; assay: Antihypertensive activity in spontaneously hypertensive rats was measured as average blood pressure at 100 mg/kg, p.o. after 24 hours of postdose-1.; type: functional; settings: route oral
endpoint-name: BP (mmHg)
# output: bare number, implied unit mmHg

Use the examples below as a reference point.
smiles_text=N#Cc1c(-c2ccc(Cl)cc2)c(-c2ccc(Cl)cc2)nn(CCO)c1=O val=158
smiles_text=CC(=O)c1c(-c2ccc(Cl)cc2)c(-c2ccc(Cl)cc2)nn(CCN2CCCCC2)c1=O val=163
smiles_text=CC(=O)c1c(-c2ccc(F)cc2)c(-c2ccc(F)cc2)nn(CCO)c1=O val=160
smiles_text=CC(C)NCCn1nc(-c2ccc(Cl)cc2)c(-c2ccc(Cl)cc2)c(C#N)c1=O.Cl val=206
smiles_text=CC(=O)c1c(-c2ccc(Cl)cc2)c(-c2ccc(Cl)cc2)nn(CCN(C)C)c1=O val=179

Respond only with BP recorded for CN(C)c1ccc(-c2c(-c3ccc(Cl)cc3)c(-c3ccc(Cl)cc3)nn(CCO)c2=O)cc1.Cl
199

Respond only with BP recorded for CCOC(=O)N1CCN(CCn2nc(-c3ccc(Cl)cc3)c(-c3ccc(Cl)cc3)c(C(C)=O)c2=O)CC1
182

Respond only with BP recorded for CC(=O)c1c(-c2ccc(Cl)cc2)c(-c2ccc(Cl)cc2)nn(CCO)c1=O
185

Respond only with BP recorded for C[C@](N)(Cc1ccc(O)c(O)c1)C(=O)O
174

Respond only with BP recorded for COCCn1nc(-c2ccc(Cl)cc2)c(-c2ccc(Cl)cc2)c(C(C)=O)c1=O
148

* * *

system: Rattus norvegicus; assay: Antihypertensive activity in spontaneously hypertensive rats was measured as average blood pressure at 100 mg/kg, po after 24 hours of postdose-2; type: functional
endpoint-name: BP (mmHg)
# output: bare number, implied unit mmHg

smiles_text=COCCn1nc(-c2ccc(Cl)cc2)c(-c2ccc(Cl)cc2)c(C(C)=O)c1=O measurement_target="Rattus norvegicus" endpoint_name=BP val=158

Respond only with BP recorded for CC(=O)c1c(-c2ccc(Cl)cc2)c(-c2ccc(Cl)cc2)nn(CCO)c1=O
193

Respond only with BP recorded for C[C@](N)(Cc1ccc(O)c(O)c1)C(=O)O
166

Respond only with BP recorded for CC(=O)c1c(-c2ccc(Cl)cc2)c(-c2ccc(Cl)cc2)nn(CCN(C)C)c1=O.Cl
184

Respond only with BP recorded for CC(=O)c1c(-c2ccc(Cl)cc2)c(-c2ccc(Cl)cc2)nn(CCNC(C)C)c1=O
176

* * *

system: Rattus norvegicus; assay: Antihypertensive activity in spontaneously hypertensive rats was measured as average blood pressure at 30 mg/kg, p.o. before predose; assay type: functional; conditions: route oral
endpoint-name: BP

smiles_text=CC(=O)c1c(-c2ccc(Cl)cc2)c(-c2ccc(Cl)cc2)nn(CCO)c1=O val="213 mmHg"

Respond only with BP recorded for CC(=O)c1c(-c2ccc(Cl)cc2)c(-c2ccc(Cl)cc2)nn(CCN2CCCC2)c1=O
212 mmHg

Respond only with BP recorded for CC(=O)c1c(-c2ccc(Cl)cc2)c(-c2ccc(Cl)cc2)nn(CCN(C)C)c1=O
199 mmHg

Respond only with BP recorded for CC(=O)c1c(-c2ccc(Cl)cc2)c(-c2ccc(Cl)cc2)nn(CCN=C(C)C)c1=O
211 mmHg

* * *

test system: Rattus norvegicus; assay: Antihypertensive activity in spontaneously hypertensive rats was measured as average blood pressure at 100 mg/kg, p.o. after 4 hours of postdose-2; assay type: functional; conditions: route oral
endpoint-name: BP (mmHg)
# output: bare number, implied unit mmHg

smiles_text=CC(=O)c1c(-c2ccc(Cl)cc2)c(-c2ccc(Cl)cc2)nn(CCO)c1=O endpoint_name=BP val=174
smiles_text=CC(=O)c1c(-c2ccc(Cl)cc2)c(-c2ccc(Cl)cc2)nn(CCN2CCCC2)c1=O endpoint_name=BP val=142
smiles_text=CC(=O)c1c(-c2ccc(Cl)cc2)c(-c2ccc(Cl)cc2)nn(CCN2CCCCC2)c1=O endpoint_name=BP val=165
smiles_text=CC(=O)c1c(-c2ccc(Cl)cc2)c(-c2ccc(Cl)cc2)nn(CCN(C)C)c1=O endpoint_name=BP val=155
smiles_text=C[C@](N)(Cc1ccc(O)c(O)c1)C(=O)O endpoint_name=BP val=155
smiles_text=CC(=O)c1c(-c2ccc(Cl)cc2)c(-c2ccc(Cl)cc2)nn(CCNC(C)C)c1=O endpoint_name=BP val=143

Report BP on Rattus norvegicus for this entry: CC(=O)c1c(-c2ccc(Cl)cc2)c(-c2ccc(Cl)cc2)nn(CCN=C(C)C)c1=O
134

Report BP on Rattus norvegicus for this entry: CCOC(=O)CCCn1nc(-c2ccc(Cl)cc2)c(-c2ccc(Cl)cc2)c(C(C)=O)c1=O
188

Report BP on Rattus norvegicus for this entry: O=c1c(-c2ccccc2)c(-c2ccccc2)c(-c2ccccc2)nn1CCO
176

Report BP on Rattus norvegicus for this entry: N#Cc1c(-c2ccc(Cl)cc2)c(-c2ccc(Cl)cc2)nn(CCO)c1=O
145

* * *

test system: Rattus norvegicus; experiment: Antihypertensive activity in spontaneously hypertensive rats was measured as average blood pressure at 10 mg/kg, p.o. after 24 hours of postdose-1; format: functional; details: route oral
endpoint-name: BP (mmHg)
# output: bare number, implied unit mmHg

smiles_text=N#Cc1c(-c2ccc(Cl)cc2)c(-c2ccc(Cl)cc2)nn(CCO)c1=O unit_text=mmHg val=184
smiles_text=CC(=O)c1c(-c2ccc(Cl)cc2)c(-c2ccc(Cl)cc2)nn(CCN2CCCC2)c1=O unit_text=mmHg val=204
smiles_text=CC(=O)c1c(-c2ccc(Cl)cc2)c(-c2ccc(Cl)cc2)nn(CCN=C(C)C)c1=O unit_text=mmHg val=208

Okay, next one:
Respond only with BP recorded for CC(=O)c1c(-c2ccc(Cl)cc2)c(-c2ccc(Cl)cc2)nn(CCO)c1=O
203
